TEST_TARGET: HDAC3 (Homo sapiens (Human), UniProt O15379)
Sequence (O15379 whole entry): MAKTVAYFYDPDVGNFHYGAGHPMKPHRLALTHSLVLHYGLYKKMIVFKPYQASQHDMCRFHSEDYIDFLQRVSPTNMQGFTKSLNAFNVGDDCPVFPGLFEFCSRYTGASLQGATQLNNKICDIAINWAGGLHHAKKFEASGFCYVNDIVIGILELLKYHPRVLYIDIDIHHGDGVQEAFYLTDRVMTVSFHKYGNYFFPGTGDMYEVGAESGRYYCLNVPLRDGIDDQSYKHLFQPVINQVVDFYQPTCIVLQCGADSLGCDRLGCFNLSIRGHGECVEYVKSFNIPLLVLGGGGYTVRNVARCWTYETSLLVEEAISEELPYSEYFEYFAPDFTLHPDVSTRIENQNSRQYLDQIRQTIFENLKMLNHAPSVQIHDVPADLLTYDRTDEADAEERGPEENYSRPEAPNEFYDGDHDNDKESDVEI
Sequence (Q9Y618 395-489 partner): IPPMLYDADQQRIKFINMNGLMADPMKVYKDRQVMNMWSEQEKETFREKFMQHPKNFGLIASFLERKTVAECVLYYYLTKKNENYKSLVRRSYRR
PROTOCOL_NOTES: HDAC enzyme assay, HDAC3
APPLIED_CONDITIONS: read-out: HDAC3 IC50
READOUT_NAME: IC50

Q: Report measured IC50 on HDAC3 (Homo sapiens (Human), UniProt O15379); entry: O=C(NO)c1cnc(Nc2ccccc2Cl)nc1 [Compound 7]
Ans: 606 nM

Q: Report measured IC50 on HDAC3 (Homo sapiens (Human), UniProt O15379); entry: O=C(NO)c1cnc(NCc2ccccc2OC(F)(F)F)nc1 [Compound 47]
Ans: 300 nM

Q: Report measured IC50 on HDAC3 (Homo sapiens (Human), UniProt O15379); entry: O=C(NO)c1cnc(NCc2cnccn2)nc1 [Compound 77]
Ans: 434 nM

Q: Report measured IC50 on HDAC3 (Homo sapiens (Human), UniProt O15379); entry: Cc1cc(F)cc(Nc2ncc(C(=O)NO)cn2)c1 [Compound 24]
Ans: 193 nM

Q: Report measured IC50 on HDAC3 (Homo sapiens (Human), UniProt O15379); entry: Cc1cc(C)cc(Nc2ncc(C(=O)NO)cn2)c1 [Compound 19]
Ans: 319 nM

Q: Report measured IC50 on HDAC3 (Homo sapiens (Human), UniProt O15379); entry: O=C(NO)c1cnc(NC(c2ccc(F)cc2)c2ccc(F)cc2)nc1 [Compound 89]
Ans: 549 nM

Q: Report measured IC50 on HDAC3 (Homo sapiens (Human), UniProt O15379); entry: O=C(NO)c1cnc(NC2(c3cc(F)cc(F)c3)CC2)nc1 [Compound 132]
Ans: 316 nM

Q: Report measured IC50 on HDAC3 (Homo sapiens (Human), UniProt O15379); entry: COc1ccc(Cl)cc1C1(Nc2ncc(C(=O)NO)cn2)CC1 [Compound 139]
Ans: 782 nM

Q: Report measured IC50 on HDAC3 (Homo sapiens (Human), UniProt O15379); entry: O=C(NO)c1cnc(Nc2ccc(Cl)c(Cl)c2)nc1 [Compound 2]
Ans: 299 nM

Q: Report measured IC50 on HDAC3 (Homo sapiens (Human), UniProt O15379); entry: Cc1cc(C(F)(F)F)cc(C2(Nc3ncc(C(=O)NO)cn3)CC2)c1 [Compound 147]
Ans: 189 nM

Q: Report measured IC50 on HDAC3 (Homo sapiens (Human), UniProt O15379); entry: O=C(NO)c1cnc(NCCc2ccccc2-c2ccccc2)nc1 [Compound 59]
Ans: 873 nM

Q: Report measured IC50 on HDAC3 (Homo sapiens (Human), UniProt O15379); entry: Cc1cccc(C)c1CNc1ncc(C(=O)NO)cn1 [Compound 54]
Ans: 1570 nM

Q: Report measured IC50 on HDAC3 (Homo sapiens (Human), UniProt O15379); entry: O=C(NO)c1cnc(NC2(c3cccc(F)c3)CCCCC2)nc1 [Compound 101]
Ans: 11200 nM

The reported numbers originate from patent US8614223B2.
